Target: c-Met (Homo sapiens)
Construct: Kinases are expressed as either kinase domains or full length constructs; made in house
Sequence (P08581 25-1390): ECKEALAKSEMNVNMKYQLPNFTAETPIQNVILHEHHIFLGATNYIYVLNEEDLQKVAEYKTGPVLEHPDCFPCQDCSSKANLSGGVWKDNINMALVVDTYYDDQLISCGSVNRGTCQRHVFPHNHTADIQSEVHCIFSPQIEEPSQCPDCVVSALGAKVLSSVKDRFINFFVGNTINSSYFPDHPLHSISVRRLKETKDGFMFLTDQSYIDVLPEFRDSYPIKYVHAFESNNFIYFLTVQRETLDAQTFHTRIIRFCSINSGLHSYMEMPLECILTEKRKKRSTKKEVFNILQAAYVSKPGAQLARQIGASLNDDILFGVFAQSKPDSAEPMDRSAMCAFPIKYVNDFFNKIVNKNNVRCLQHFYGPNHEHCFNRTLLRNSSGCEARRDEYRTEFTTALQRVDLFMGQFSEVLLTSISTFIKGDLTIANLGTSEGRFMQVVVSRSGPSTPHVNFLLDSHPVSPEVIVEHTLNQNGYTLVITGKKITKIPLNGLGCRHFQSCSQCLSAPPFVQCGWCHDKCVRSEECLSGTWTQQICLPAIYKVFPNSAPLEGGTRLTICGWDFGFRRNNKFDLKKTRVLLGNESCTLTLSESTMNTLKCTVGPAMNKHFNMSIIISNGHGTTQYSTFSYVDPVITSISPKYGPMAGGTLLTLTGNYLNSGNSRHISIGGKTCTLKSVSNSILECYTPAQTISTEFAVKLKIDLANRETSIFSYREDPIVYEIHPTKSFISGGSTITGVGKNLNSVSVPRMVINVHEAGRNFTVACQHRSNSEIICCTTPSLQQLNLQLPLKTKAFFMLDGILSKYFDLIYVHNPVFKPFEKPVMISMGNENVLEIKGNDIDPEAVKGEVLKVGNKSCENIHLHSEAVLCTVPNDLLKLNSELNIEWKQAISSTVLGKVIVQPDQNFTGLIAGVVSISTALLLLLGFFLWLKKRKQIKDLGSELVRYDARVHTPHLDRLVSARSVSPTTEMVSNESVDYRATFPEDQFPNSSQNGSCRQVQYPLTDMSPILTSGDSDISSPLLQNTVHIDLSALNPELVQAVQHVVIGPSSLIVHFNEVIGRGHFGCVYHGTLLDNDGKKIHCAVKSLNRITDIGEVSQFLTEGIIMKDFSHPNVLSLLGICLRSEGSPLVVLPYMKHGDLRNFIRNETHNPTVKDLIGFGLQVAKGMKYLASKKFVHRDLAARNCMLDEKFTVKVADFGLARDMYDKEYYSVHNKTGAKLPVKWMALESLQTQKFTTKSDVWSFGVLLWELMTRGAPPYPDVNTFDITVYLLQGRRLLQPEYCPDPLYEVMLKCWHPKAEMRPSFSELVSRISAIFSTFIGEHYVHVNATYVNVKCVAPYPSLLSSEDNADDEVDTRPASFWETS
Assay: Kinase inhibition assay (33P transfer), c-Met
Type: biochemical
Settings: Table 2, kinase inhibition class; read-out: Met-1
Recorded IC50 values for a group of compounds are listed next.
value-type: IC50

COc1cc(Nc2ncnc(-n3c(Nc4ccccc4)nc4ccccc43)n2)cc(OC)c1OC | > 9.58 µM
COc1ccc(Oc2ncnc(Nc3cc(OC)c(OC)c(OC)c3)n2)cc1 | > 11.7 µM
COc1ncnc(Nc2cc(OC)c(OC)c(OC)c2)n1 | > 15.4 µM
COc1cc(Nc2ncnc(-n3c(NCc4ccccc4F)nc4ccccc43)n2)cc(OC)c1OC | > 8.97 µM
COc1cc(Nc2ncnc(-n3c(NCc4ncccc4C)nc4ccccc43)n2)cc(OC)c1OC | > 9.03 µM
COc1cc(Nc2ncnc(-n3c(NCCO)nc4ccccc43)n2)cc(OC)c1OC | > 10.3 µM
COc1cc(Nc2ncnc(-c3ccccc3)n2)cc(OC)c1 | > 14.6 µM
COc1cc(Nc2ncnc(-n3c(N)nc4ccccc43)n2)ccc1OCCn1ccnn1 | > 10.1 µM
O=c1[nH]c2ccccc2n1-c1ncnc(Nc2ncccn2)n1 | > 14.7 µM
COc1ccc(-c2cn[nH]c2Nc2ncnc(Nc3cc(OC)c(OC)c(OC)c3)n2)cc1OC | > 9.38 µM
COc1cc(Nc2ncnc(-n3ccc4cc(OCc5ccccc5)ccc43)n2)cc(OC)c1OC | 7.24 to 9.31 µM
O=c1[nH]c2ccccc2n1-c1ncnc(Nc2cccc3ncccc23)n1 | > 12.7 µM
COc1cc(Nc2ncnc(N[C@H](CO)c3ccccc3)n2)cc(OC)c1OC | > 11.3 µM
COc1cc(Nc2ncnc(NC(=O)NCc3ccccc3)n2)cc(OC)c1OC | > 11 µM
COc1cc(Nc2ncnc(Nc3ccc(C)c([N+](=O)[O-])c3)n2)cc(OC)c1OC | > 10.9 µM
COc1cc(Nc2ncnc(Nc3ccc4c(cnn4Cc4ccccc4)c3)n2)cc(OC)c1OCCN1CCOCC1 | > 7.72 µM
CCN(CC)CCOc1ccc(Nc2ncnc(Nc3cc(OC)c(OC)c(OC)c3)n2)cc1OC | > 9.03 µM
Cc1ccc2c(c1)CCCN2c1ncnc(Nc2ccc3c(c2)C(=O)OC3)n1 | 1.07 to 6.43 µM

----------
Target: Itk (Homo sapiens)
Construct: Kinases are expressed as either kinase domains or full length constructs; made in house
Sequence (Q08881 whole entry, species assumed, the tested form may be a part): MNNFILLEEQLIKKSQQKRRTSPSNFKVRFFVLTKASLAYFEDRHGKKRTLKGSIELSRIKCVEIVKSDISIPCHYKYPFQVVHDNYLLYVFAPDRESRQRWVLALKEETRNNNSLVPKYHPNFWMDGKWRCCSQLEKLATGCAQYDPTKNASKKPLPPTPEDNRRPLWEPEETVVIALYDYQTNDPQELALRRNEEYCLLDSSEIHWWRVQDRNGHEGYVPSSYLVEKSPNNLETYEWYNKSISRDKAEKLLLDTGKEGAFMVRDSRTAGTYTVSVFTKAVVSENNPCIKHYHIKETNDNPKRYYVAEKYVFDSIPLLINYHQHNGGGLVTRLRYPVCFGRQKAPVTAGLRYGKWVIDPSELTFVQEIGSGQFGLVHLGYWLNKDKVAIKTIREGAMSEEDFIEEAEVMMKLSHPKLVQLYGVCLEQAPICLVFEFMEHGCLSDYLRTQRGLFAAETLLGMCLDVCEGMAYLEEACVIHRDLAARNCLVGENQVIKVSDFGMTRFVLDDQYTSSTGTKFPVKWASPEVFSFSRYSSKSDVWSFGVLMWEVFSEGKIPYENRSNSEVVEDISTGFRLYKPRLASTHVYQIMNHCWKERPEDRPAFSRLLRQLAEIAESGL
Test: Kinase inhibition assay (33P transfer), Itk
Type: biochemical
Settings: read-out: Itk-1
Recorded IC50 values for a group of compounds are listed next.
value-type: IC50

COc1cc(Nc2ncnc(-n3c(NCc4ccccn4)nc4ccccc43)n2)cc(OCCN2CCOCC2)c1OC | > 7.71 µM
COC(=O)Cc1cccc(Nc2ncnc(Nc3ccc(C)c(O)c3)n2)c1 | 1.09 to 6.57 µM
CC(C)(C)c1cc(Nc2ncnc(Nc3ccc(CC(=O)O)cc3)n2)[nH]n1 | 9.53 to 12.2 µM
COC(=O)c1sccc1Nc1ncnc(N2CCCc3cc(C)ccc32)n1 | > 11.8 µM
Nc1ncnc(-n2c(N)nc3ccccc32)n1 | 10.6 to 15.4 µM
Cc1cccc(Nc2ncnc(Nc3ccc4c(cnn4Cc4ccccc4)c3)n2)c1 | 8.59 to 11 µM
COC(=O)Cc1cccc(Nc2ncnc(-n3c(N)nc4ccccc43)n2)c1 | 1.07 to 6.39 µM
COc1ccc(Nc2ncnc(Nc3cc(-c4ccccc4)n[nH]3)n2)cc1OC | > 11.6 µM
c1ccc(Cn2ncc3cc(Nc4ncnc(Nc5cc(-c6ccccc6)[nH]n5)n4)ccc32)cc1 | 0.87 to 5.22 µM

----------
Target: Lck (Homo sapiens, UniProt P06239)
Construct: Kinases are expressed as either kinase domains or full length constructs; made in house
Sequence (P06239 whole entry, species assumed, the tested form may be a part): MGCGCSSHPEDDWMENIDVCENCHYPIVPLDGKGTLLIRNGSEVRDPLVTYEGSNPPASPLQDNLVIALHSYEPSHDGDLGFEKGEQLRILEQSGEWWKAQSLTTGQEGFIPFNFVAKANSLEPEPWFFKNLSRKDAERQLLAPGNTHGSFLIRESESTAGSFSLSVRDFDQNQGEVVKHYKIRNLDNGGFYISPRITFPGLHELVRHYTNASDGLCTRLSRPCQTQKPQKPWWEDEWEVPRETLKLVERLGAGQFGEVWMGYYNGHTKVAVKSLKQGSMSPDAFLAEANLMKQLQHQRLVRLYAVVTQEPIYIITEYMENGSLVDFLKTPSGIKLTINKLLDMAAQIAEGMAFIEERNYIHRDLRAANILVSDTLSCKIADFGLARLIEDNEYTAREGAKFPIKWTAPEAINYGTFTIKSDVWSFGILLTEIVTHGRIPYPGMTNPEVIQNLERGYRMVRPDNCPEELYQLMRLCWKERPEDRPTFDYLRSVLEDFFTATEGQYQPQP
Assay: Kinase inhibition assay (33P transfer), Lck
Assay type: biochemical
Conditions: Table 3; read-out: Lck-1
Source text: The inhibitor compounds described herein are screened in the following manner. […] Kinases are expressed as either kinase domains or full length constructs fused to glutathione S-transferase (GST) or polyHistidine tagged fusion proteins in either E. colior Baculovirus-High Five expression systems. […]
value-type: IC50

NCc1ccc(Nc2ncnc(Nc3cc(-c4ccco4)n[nH]3)n2)cc1 | 1.15 to 6.89 µM
COc1cc(Nc2ncnc(-n3c(N(C)C)nc4ccccc43)n2)cc(OC)c1OC | > 10.7 µM
COc1ccc(Nc2ncnc(Nc3cc(OC)c(OC)c(OC)c3)n2)cc1O | 1 to 6.01 µM
COCCOc1ccc(Nc2ncnc(Nc3ccc(C)c(F)c3)n2)cc1OCCOC | > 10.1 µM
COc1ccc(Nc2ncnc(Nc3ccccc3C)n2)cc1OC | 1.19 to 7.11 µM
COc1cc(Nc2ncnc(Nc3nccs3)n2)cc(OC)c1OC | > 12.5 µM
COc1ccc(Nc2ncnc(Nc3ccc(C)c(O)c3)n2)cc1OC | 1.13 to 6.79 µM
COc1cc(Nc2ncnc(-n3c(Cl)nc4ccccc43)n2)cc(OC)c1OC | 5.81 to 8.48 µM
COc1cc(Nc2ncnc(-c3cccc(Cl)c3)n2)cc(OC)c1OC | > 12.1 µM
COc1cc(Nc2ncnc(-c3ccc(F)cc3)n2)cc(OC)c1OC | > 12.6 µM
COc1cc(Nc2ncnc(Nc3ccc(O)cc3Cl)n2)cc(OC)c1OC | 0.991 to 5.94 µM
COCCOc1ccc(Nc2ncnc(Nc3ccc(C)c(O)c3)n2)cc1OC | 1.01 to 6.04 µM
OCc1cccc(Nc2ncnc(Nc3cc(-c4ccco4)n[nH]3)n2)c1 | 1.14 to 6.87 µM
COc1cc(Nc2ncnc(Nc3ccc(Br)cc3)n2)cc(OC)c1OC | 0.925 to 5.55 µM
C#Cc1cccc(Nc2ncnc(Nc3ccc(OC)c(OC)c3)n2)c1 | 10.1 to 13 µM
COc1cc(Nc2ncnc(Nc3ccc4cn[nH]c4c3)n2)cc(OC)c1OC | 1.02 to 6.1 µM
COc1cc(Nc2ncnc(Nc3ccc(Cl)cc3)n2)cc(OC)c1OC | 1.03 to 6.19 µM
NC(=O)c1ccc(Nc2ncnc(-n3c(=O)[nH]c4ccccc43)n2)cc1 | > 13 µM
NC(=O)c1cccc(Nc2ncnc(Nc3cc(-c4ccco4)n[nH]3)n2)c1 | 1.1 to 6.62 µM
c1coc(-c2cc(Nc3ncnc(Nc4ccc(N5CCOCC5)cc4)n3)[nH]n2)c1 | 0.989 to 5.93 µM
COc1cc(Nc2ncnc(-n3c(NCc4cccnc4)nc4ccccc43)n2)cc(OC)c1OC | 0.826 to 4.95 µM
COc1cc(Nc2ncnc(Nc3ccc(C)c([N+](=O)[O-])c3)n2)cc(OC)c1OC | > 10.9 µM
COc1cc(Nc2ncnc(-c3ccccc3)n2)cc(OC)c1OC | > 13.3 µM
COc1cc(Nc2ncnc(N)n2)cc(OC)c1OC [Compound 925] | 1.44 to 8.66 µM
COc1cc(Nc2ncnc(Nc3ccccc3C)n2)cc(OC)c1OC | 1.09 to 6.53 µM
COc1ccc(Nc2ncnc(Nc3ccc(F)c(Cl)c3)n2)cc1OC | > 12 µM
COc1cc(Nc2ncnc(Nc3ccc(Br)c(Cl)c3)n2)cc(OC)c1OC | 0.857 to 5.14 µM
COc1cc(Nc2ncnc(-n3c(Nc4ccc(Cl)cc4)nc4ccccc43)n2)cc(OC)c1OC | 4.76 to 6.95 µM
Fc1ccccc1Nc1ncnc(-c2ccccc2)n1 | > 16.9 µM
COc1cc(Nc2ncnc(-n3c(Nc4ccc(F)cc4)nc4ccccc43)n2)cc(OC)c1OC | 0.821 to 4.92 µM
COc1cc(Nc2ncnc(Nc3cccc(O)c3)n2)cc(OC)c1OC | 1.08 to 6.5 µM
C#Cc1cccc(Nc2ncnc(-n3c(=O)[nH]c4ccccc43)n2)c1 | 10.7 to 13.7 µM
COc1cc(Nc2ncnc(N3CCc4ccc([N+](=O)[O-])cc43)n2)cc(OC)c1OC | > 10.6 µM
COc1ccc2c(c1)c(CCN(C)C)cn2-c1ncnc(Nc2cc(OC)c(OC)c(OC)c2)n1 | > 9.4 µM
COc1cc(Nc2ncnc(Nc3cccc(OC(F)(F)F)c3)n2)cc(OC)c1OC | 0.915 to 5.49 µM
COCCOc1ccc(Nc2ncnc(-n3c(N)nc4ccccc43)n2)cc1OC | 0.982 to 5.89 µM

----------
Recorded IC50 values for a group of molecules are listed next.
Molecular target: c-Met (Homo sapiens)
Construct: Kinases are expressed as either kinase domains or full length constructs; made in house
Experiment: Kinase inhibition assay (33P transfer), c-Met
Format: biochemical
Conditions: Table 2, kinase inhibition class; read-out: Met-1
value-type: IC50

COc1ccc(Nc2ncnc(-n3c(N)nc4ccccc43)n2)cc1O | 1.14 to 6.87 µM
COc1ccc(Nc2ncnc(N(C)c3cccc(Cl)c3)n2)cc1 | > 13.2 µM
COc1cc(Nc2ncnc(Nc3ccc(O)cc3C)n2)cc(OC)c1OC | > 11.7 µM
NC(=O)Cc1cccc(Nc2ncnc(Nc3cc(-c4ccccc4)n[nH]3)n2)c1 | < 1.04 µM
COc1cc(Nc2ncnc(-n3c(NCCc4ccccn4)nc4ccccc43)n2)cc(OC)c1OC | > 9.03 µM
COc1ccc(Nc2ncnc(N(CC(=O)OC(C)(C)C)c3ccc(Cl)cc3)n2)cc1OC | > 9.54 µM
COc1cc(Nc2ncnc(NN3CCCC3)n2)cc(OC)c1OC | > 13 µM
COc1cccc(Nc2ncnc(Nc3ccc(OCc4ccccc4)cc3)n2)c1 | 8.76 to 11.3 µM
COc1ccc(Nc2ncnc(Nc3ccc4[nH]ccc4c3)n2)cc1OC | > 12.4 µM

This collection of values is drawn from patent US7074789B2.
